Data origin: patent US12404242B2

- Tested on: T98G cells
- assay details: Cell viability (AlamarBlue), T98G glioblastoma cells
- Format: cell-based
- experimental context: Homo sapiens, 72 hours of treatment
parameter measured: EC50 (µM)

For orientation, consider the following solved cases.
# input molecule: COC12CC(C(=O)NC(=O)Nc3cc(C)c(Oc4ncc(Cl)cn4)c(F)c3)(C1)C2 [Compound 90] ; wanted: its EC50
# output 0.0384

# input molecule: COC12CC(C(=O)NC(=O)Nc3ccc(C)c(Oc4ncccn4)c3)(C1)C2 [Compound 97] ; wanted: its EC50
# output 0.026

I: COC12CC(C(=O)NC(=O)Nc3ccc(C)c(Oc4ccccn4)c3)(C1)C2 [Compound 98]
II: COC12CC(C(=O)NC(=O)Nc3cc(C)c(Oc4ccc(F)cn4)c(F)c3)(C1)C2 [Compound 91]
# input Which entry has a larger number for EC50, I or II ? I would appreciate it if you answered with the label of your choice.
# output II
